target.or.test.system: T1, human APJ receptor (hAPJ) (human, UniProt P35414 1-380)
T1 sequence (looked up): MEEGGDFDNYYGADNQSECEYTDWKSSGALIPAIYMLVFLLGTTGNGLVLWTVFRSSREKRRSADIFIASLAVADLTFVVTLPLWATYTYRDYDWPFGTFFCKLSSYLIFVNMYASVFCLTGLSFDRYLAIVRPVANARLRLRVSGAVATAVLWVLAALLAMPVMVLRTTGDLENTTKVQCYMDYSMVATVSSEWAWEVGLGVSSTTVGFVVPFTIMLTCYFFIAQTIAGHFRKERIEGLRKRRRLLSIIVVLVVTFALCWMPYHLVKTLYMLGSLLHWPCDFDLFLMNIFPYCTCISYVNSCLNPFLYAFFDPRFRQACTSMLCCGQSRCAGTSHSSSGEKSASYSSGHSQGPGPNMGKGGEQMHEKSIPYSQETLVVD
assay.protocol: cell-based or functional assay
Bridges are numbered along the chain shown (N, C = ends). [ ]: non-standard residue; d: D form. The star is where a group is joined. 2Nal = N[C@@H](Cc1ccc2ccccc2c1)C(=O)O; NMeF = CN[C@@H](Cc1ccccc1)C(=O)O; pGlu = O=C1CC[C@@H](C(=O)O)N1; NHPhenethyl = c1ccc(CCN*)cc1; d(hCys) = N[C@H](CCS)C(=O)O; dNle = CCCC[C@@H](N)C(=O)O; hCys = N[C@@H](CCS)C(=O)O; Nle = CCCC[C@H](N)C(=O)O; dAbu = CC[C@@H](N)C(=O)O
So I've got a bunch of binders here, and I need their hAPJ Ca^2+ Flux EC50 values.
Numbers only here, please. The scale is nM.

// [pGlu]RCRLSCKAP[dNle][dA][dF]-OH (disulfide 3-7; SMILES CCCC[C@@H](NC(=O)[C@@H]1CCCN1C(=O)[C@H](C)NC(=O)[C@H](CCCCN)NC(=O)[C@@H]1CSSC[C@H](NC(=O)[C@H](CCCNC(=N)N)NC(=O)[C@@H]2CCC(=O)N2)C(=O)N[C@@H](CCCNC(=N)N)C(=O)N[C@@H](CC(C)C)C(=O)N[C@@H](CO)C(=O)N1)C(=O)N[C@H](C)C(=O)N[C@H](Cc1ccccc1)C(=O)O) [pE-R-C*-R-L-S-C*-K-A-P-(D-Nle)-a-f-OH] : hAPJ Ca^2+ Flux EC50 value = 85.8

// hAPJ Ca^2+ Flux EC50 lookup, binder = Ac-[d(hCys)]RPRLS[hCys]KGP[Nle]PF-OH (disulfide 1-7; SMILES CCCC[C@H](NC(=O)[C@@H]1CCCN1C(=O)CNC(=O)[C@H](CCCCN)NC(=O)[C@@H]1CCSSCC[C@@H](NC(C)=O)C(=O)N[C@@H](CCCNC(=N)N)C(=O)N2CCC[C@H]2C(=O)N[C@@H](CCCNC(=N)N)C(=O)N[C@@H](CC(C)C)C(=O)N[C@@H](CO)C(=O)N1)C(=O)N1CCC[C@H]1C(=O)N[C@@H](Cc1ccccc1)C(=O)O) [Ac-(D-hC)*-R-P-R-L-S-hC*-K-G-P-Nle-P-F-OH] , result: 14.1

Given item Ac-CRPRLSCKGP[Nle]P[2Nal]-OH (disulfide 1-7) [Ac-C*-R-P-R-L-S-C*-K-G-P-Nle-P-Nal-OH] , the value recorded as its hAPJ Ca^2+ Flux EC50 is 1.6

Entry under test: [pGlu]RCRLSCKGP[dNle][dA][dF]-OH (disulfide 3-7; SMILES CCCC[C@@H](NC(=O)[C@@H]1CCCN1C(=O)CNC(=O)[C@H](CCCCN)NC(=O)[C@@H]1CSSC[C@H](NC(=O)[C@H](CCCNC(=N)N)NC(=O)[C@@H]2CCC(=O)N2)C(=O)N[C@@H](CCCNC(=N)N)C(=O)N[C@@H](CC(C)C)C(=O)N[C@@H](CO)C(=O)N1)C(=O)N[C@H](C)C(=O)N[C@H](Cc1ccccc1)C(=O)O) [pE-R-C*-R-L-S-C*-K-G-P-(D-Nle)-a-f-OH] . Its hAPJ Ca^2+ Flux EC50 was 2.9

The value of hAPJ Ca^2+ Flux EC50 measured for the binder Ac-CRPRLSCKGP[Nle]P-{NMe(Phenethyl)} (disulfide 1-7) [Ac-C*-R-P-R-L-S-C*-K-G-P-Nle-P-NMe(Phenethyl)] turned out to be 23.4

GET /value?item= Ac-CRPRLSCKGP[Nle]P-NHPhenethyl (disulfide 1-7) [Ac-C*-R-P-R-L-S-C*-K-G-P-Nle-P-NH(Phenethyl)] &field=hAPJ Ca^2+ Flux EC50 returns 3.2

Lab note: Ac-CRPRLSCKGP[Nle]P[dA]-OH (disulfide 1-7; SMILES CCCC[C@H](NC(=O)[C@@H]1CCCN1C(=O)CNC(=O)[C@H](CCCCN)NC(=O)[C@@H]1CSSC[C@H](NC(C)=O)C(=O)N[C@@H](CCCNC(=N)N)C(=O)N2CCC[C@H]2C(=O)N[C@@H](CCCNC(=N)N)C(=O)N[C@@H](CC(C)C)C(=O)N[C@@H](CO)C(=O)N1)C(=O)N1CCC[C@H]1C(=O)N[C@H](C)C(=O)O) [Ac-C*-R-P-R-L-S-C*-K-G-P-Nle-P-a-OH] gave hAPJ Ca^2+ Flux EC50 of 13.1

// [pGlu]R[dC]RLSCKGP[dNle][dAbu][dF]-OH (disulfide 3-7; SMILES CCCC[C@@H](NC(=O)[C@@H]1CCCN1C(=O)CNC(=O)[C@H](CCCCN)NC(=O)[C@@H]1CSSC[C@@H](NC(=O)[C@H](CCCNC(=N)N)NC(=O)[C@@H]2CCC(=O)N2)C(=O)N[C@@H](CCCNC(=N)N)C(=O)N[C@@H](CC(C)C)C(=O)N[C@@H](CO)C(=O)N1)C(=O)N[C@H](CC)C(=O)N[C@H](Cc1ccccc1)C(=O)O) [pE-R-c*-R-L-S-C*-K-G-P-(D-Nle)-(D-abu)-f-OH] : hAPJ Ca^2+ Flux EC50 value = 86.5

Sure, the documented hAPJ Ca^2+ Flux EC50 for ERPCLSCKGPLPF (pE at 1; disulfide C4-C7; Nle at 11; (N-Me)F at 13; free C-terminal acid) [pE-R-P-C*-L-S-C*-K-G-P-Nle-P-(N-Me)F-OH] is 4.2

Entry under test: Ac-CRPRLSCKGP[Nle]P[NMeF]-OH (disulfide 1-7) [Ac-C*-R-P-R-L-S-C*-K-G-P-Nle-P-(N-Me)F-OH] . Its hAPJ Ca^2+ Flux EC50 was 64.5

get_value(item= [pGlu]RCRLSCFGP[dNle][dA][dF]-OH (disulfide 3-7; SMILES CCCC[C@@H](NC(=O)[C@@H]1CCCN1C(=O)CNC(=O)[C@H](Cc1ccccc1)NC(=O)[C@@H]1CSSC[C@H](NC(=O)[C@H](CCCNC(=N)N)NC(=O)[C@@H]2CCC(=O)N2)C(=O)N[C@@H](CCCNC(=N)N)C(=O)N[C@@H](CC(C)C)C(=O)N[C@@H](CO)C(=O)N1)C(=O)N[C@H](C)C(=O)N[C@H](Cc1ccccc1)C(=O)O) [pE-R-C*-R-L-S-C*-F-G-P-(D-Nle)-a-f-OH] , readout=hAPJ Ca^2+ Flux EC50) returns 3.3

get_value(item= Ac-CRPRLSCKGP[Nle]-NHPhenethyl (disulfide 1-7; SMILES CCCC[C@H](NC(=O)[C@@H]1CCCN1C(=O)CNC(=O)[C@H](CCCCN)NC(=O)[C@@H]1CSSC[C@H](NC(C)=O)C(=O)N[C@@H](CCCNC(=N)N)C(=O)N2CCC[C@H]2C(=O)N[C@@H](CCCNC(=N)N)C(=O)N[C@@H](CC(C)C)C(=O)N[C@@H](CO)C(=O)N1)C(=O)NCCc1ccccc1) [Ac-C*-R-P-R-L-S-C*-K-G-P-Nle-NH(Phenethyl)] , readout=hAPJ Ca^2+ Flux EC50) returns 32.2
